Hey, just so you know, these numbers are from patent US7511065B2.

Molecular target: MLK-7 (Homo sapiens)
Construct: GST; His tag
Sequence (Q9NYL2 1-455 isoform Q9NYL2-2): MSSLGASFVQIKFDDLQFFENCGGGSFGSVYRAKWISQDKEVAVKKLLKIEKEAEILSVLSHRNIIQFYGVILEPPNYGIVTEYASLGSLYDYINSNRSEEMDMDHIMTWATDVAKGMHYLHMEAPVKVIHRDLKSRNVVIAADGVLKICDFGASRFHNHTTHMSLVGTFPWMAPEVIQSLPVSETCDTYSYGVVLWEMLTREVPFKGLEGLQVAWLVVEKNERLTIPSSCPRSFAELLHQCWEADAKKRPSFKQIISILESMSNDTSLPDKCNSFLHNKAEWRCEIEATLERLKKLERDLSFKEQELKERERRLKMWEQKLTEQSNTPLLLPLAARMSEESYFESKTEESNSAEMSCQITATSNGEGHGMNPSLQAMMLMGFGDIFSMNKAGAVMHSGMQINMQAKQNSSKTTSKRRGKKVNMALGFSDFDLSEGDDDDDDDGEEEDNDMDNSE
Assay: In vitro assay of purified MLK-7 kinase activity (33P transfer from ATP to myelin basic protein)
Settings: recombinant GST-tagged MLK-7 at 1 nm, 30 uM ATP, 5 uM MBP substrate, 2 hours room temperature; read-out: MLK7 IC50
Structures can show the parent of a compound that is named as a salt.
READOUT TYPE: IC50

**Q:** Please look up its IC50: NCCCC[C@H](NC(=O)c1ccc(-c2ccc3c(-c4c(-c5ccccn5)nn5c4CCC5)ccnc3c2)cc1)C(=O)O [Example 143, Ditrifluoroacetic Acid Salt]
**A:** ≤ 0.1 µM

**Q:** Please look up its IC50: O=C(O)CCNC(=O)c1ccc(-c2ccc3c(-c4c(-c5ccccn5)nn5c4CCC5)ccnc3c2)cc1 [Example 147, Trifluoroacetic Acid Salt]
**A:** ≤ 0.1 µM

**Q:** Requested field: IC50. Item: c1ccc(-c2nn3c(c2-c2ccnc4cc(-c5ccc6[nH]ccc6c5)ccc24)CCC3)nc1
**A:** ≤ 0.1 µM
